# protocol text: Inhibition of full-length HuR-ARE fluorescein-labeled Msi1 mRNA binding (unknown origin) incubated for 2 hrs by fluorescence polarization assay
# Design: species or system Homo sapiens
property measured: pIC50
Answers are plain numbers, as −log10 of the molar value.

O=C(O)c1cc2cc([N+](=O)[O-])ccc2[nH]1 4.53

Kindly review the next molecule as well.
Problem: Provide only the value of recorded pIC50 for `CC(C)(C)c1ccc(C(=O)Nc2ccc3[nH]c(C(=O)NO)cc3c2)cc1`
Result: 5.56

###

# Tested on: MDA-MB-231
# protocol text: Cytotoxicity against HuR knockout 2 human MDA-MB-231 cells assessed as inhibition of cell growth by MTT assay (reference value: 5.320 uM)
# Format: functional, cell-based
property measured: IC50 (µM)
Answers are plain numbers, in µM.

Problem: Provide only the value of recorded IC50 for `CC(C)(C)c1ccc(C(=O)Nc2ccc3[nH]c(C(=O)NO)cc3c2)cc1`
Result: 12.5
